Where do the numbers come from? From PubChem BioAssay AID485297.

# protocol notes: qHTS Assay for Rab9 Promoter Activators; also: nearly all actives have a fitted effect of over 60% in size; also: potency is read from the fitted curve at half-maximal effect
# condition summary: Huh7 Rab9 promoter-luciferase reporter, luminescence, 24 h; series mostly up to 9.22 µM
Screen size: about 320,000 compounds; about 9,100 (2.8%) were called active. About 3% were inconclusive and are not listed. The full list was thinned out, with actives kept by preference.
observable: Potency

Observe how each entry below is paired with its result.
O=C(N/N=C/c1cccc(Br)c1)c1ccc(N2CCCC2=O)cc1 :: inactive
Cc1ccc(N/C=C/C(=O)c2ccccc2)cc1C :: 562 nM (active)
COc1ccccc1N1CCN(C(=O)C(=O)N/N=C/c2ccccc2F)CC1 :: inactive
CCCCC(CC)C(=O)Nc1ccc(Cl)cn1 (configuration not stated) :: inactive
CC(C)CN(C(=O)c1cccc(S(=O)(=O)N2CCCCC2)c1)C1CCS(=O)(=O)C1 (configuration not stated) :: inactive
CCCc1cc(C(=O)Nc2ccc(C(=O)OC)cc2)cs1 :: inactive
CCOc1ncccc1C(=O)OCC(=O)c1c[nH]c2ccccc12 :: inactive
O=C(/C=C/NCc1ccc(F)cc1)c1ccccc1 :: inactive
Cc1nc(NC(=O)c2ccc3c(c2)OCCO3)ccc1Br :: 562 nM (active)
CCc1ccc(C(=O)N2CCN(S(=O)(=O)c3sc(C(=O)O)c(C)c3C(=O)O)CC2)cc1 :: inactive

Query string: # query: Potency of entry Cc1ccc(SCCC(=O)NCc2ccccn2)cc1
Result string: inactive

Query string: # query: Potency of entry O=C(Nc1cccc(Cl)c1N1CCOCC1)c1ccc2c(c1)OCCO2
Result string: inactive

----------
# protocol notes: qHTS Assay for Rab9 Promoter Activators; also: nearly all actives have a fitted effect of over 60% in size
# condition summary: Huh7 Rab9 promoter-luciferase reporter, luminescence, 24 h; series mostly up to 9.22 µM
Hit rate of the full screen: of about 320,000 compounds, about 9,100 (2.8%) were called active. Not shown: some 3% with an inconclusive outcome. Calls follow the shape of the dose curve; as a rule, active = well fitted activation curve with a large enough effect; inconclusive = small, poorly fitted or top-dose-only effect; inactive = no such curve, though single readings can be large or run the other way. Shown is part of a subset that was picked to be rich in actives.
Select the matching outcome among active, inactive

Query string: Could you check what this test reported for c1ccc2cc(CCCc3cc4ccccc4cn3)ncc2c1 ?
Result string: inactive

Query string: Could you check what this test reported for O=C1C=C(c2cccc(Br)c2)C[C@@H](c2ccc(F)cc2)C1 ?
Result string: inactive

Query string: Could you check what this test reported for O=C(CNC(=O)c1ccccc1)NCC(=O)OCC(=O)c1ccccc1 ?
Result string: inactive

Query string: Could you check what this test reported for COc1ccc(/C=C/c2noc(-c3ccccc3OC(C)=O)n2)cc1 ?
Result string: active

Query string: Could you check what this test reported for Cc1ccc(NC(=O)Cc2nc(COC(=O)C(C)NS(=O)(=O)c3ccc(C)cc3)cs2)cc1 (stereo unspecified) ?
Result string: inactive

Query string: Could you check what this test reported for Cc1ccc(S(=O)(=O)N2CCN(c3ncnc4ccccc34)CC2)cc1 ?
Result string: inactive

Query string: Could you check what this test reported for O=C(CNC(=O)c1ccccc1Br)NCCSc1ccc(Br)cc1 ?
Result string: inactive

Query string: Could you check what this test reported for Cc1ccc2c(c1)C1CN(C)CCC1N2S(=O)(=O)c1cccc(F)c1 (stereo unspecified) ?
Result string: inactive

Query string: Could you check what this test reported for O=C(CNC(=O)c1ccccc1F)c1ccc(Br)cc1 ?
Result string: active

Query string: Could you check what this test reported for Cc1cc2nc(SCCN3CCOCC3)[nH]c2cc1C ?
Result string: active

Query string: Could you check what this test reported for CCC1CCC2(CC1)NC(=O)N(CC(=O)Nc1ccc(OC)cc1)C2=O (stereo unspecified) ?
Result string: inactive

Query string: Could you check what this test reported for COc1cccc(OCCOc2cccc(/C=N/n3cnnc3)c2)c1 ?
Result string: active

Query string: Could you check what this test reported for Cc1cccc(OCCC(=O)OCc2csc(CC(=O)Nc3ccccc3C)n2)c1 ?
Result string: inactive

Query string: Could you check what this test reported for CN(C)C(CNC(=O)c1ccc(OCc2cn3ccccc3n2)cc1)c1ccco1 (stereo unspecified) ?
Result string: inactive

Query string: Could you check what this test reported for COc1ccc2oc(=O)c(C(=O)N3CCCC3)cc2c1 ?
Result string: inactive

Query string: Could you check what this test reported for COc1cccc(C(=O)Nc2nnc(S(=O)(=O)N3CCCCC3)s2)c1 ?
Result string: inactive

Query string: Could you check what this test reported for Cc1cc(C(=O)COc2ccc(Br)cc2F)c(C)n1C1CC1 ?
Result string: inactive

Query string: Could you check what this test reported for N#Cc1ccc(CSc2nnc3ccccn23)cc1 ?
Result string: inactive

Query string: Could you check what this test reported for O=C(Nc1ccc(Br)cn1)c1ccc([N+](=O)[O-])o1 ?
Result string: inactive

Query string: Could you check what this test reported for CC(=O)NS(=O)(=O)c1ccc(NC(=O)C2C3C=CC(C3)C2C(=O)O)cc1 (stereo unspecified) ?
Result string: inactive

Query string: Could you check what this test reported for CCc1ccc(-c2nn(-c3ccccc3C)cc2C(=O)N2CCN(C3CCS(=O)(=O)C3)CC2)cc1 (stereo unspecified) ?
Result string: inactive

Query string: Could you check what this test reported for Cc1cc(C(=O)CSc2nc(N)cc(=O)[nH]2)c(C)n1-c1cccc(F)c1 ?
Result string: inactive

Query string: Could you check what this test reported for O=C(Nc1ccc(Cl)cc1)OCc1cc(-c2ccccc2)on1 ?
Result string: inactive

Query string: Could you check what this test reported for O=C(CSc1nnc2ccccn12)c1ccccc1 ?
Result string: active

Query string: Could you check what this test reported for CCCCc1nc2cc(C(=O)NCCc3cnn(C)c3)ccc2o1 ?
Result string: inactive

Query string: Could you check what this test reported for Cc1ccccc1Nc1nc(N)nc(COC(=O)CCC(=O)c2ccc(F)cc2)n1 ?
Result string: inactive

Query string: Could you check what this test reported for COC(=O)c1cc(NC(=O)C2C3C=CC(C3)C2C(=O)O)cc(C(=O)OC)c1 (stereo unspecified) ?
Result string: inactive

Query string: Could you check what this test reported for CCOC(=O)c1ccc(NC(=O)CNC(=O)c2ccco2)cc1 ?
Result string: inactive

Query string: Could you check what this test reported for O=C(Nc1cccc(Cl)c1)OCc1ccccn1 ?
Result string: active

Query string: Could you check what this test reported for Cc1ccc(NC(=O)Cn2nnc(C(=O)NCc3ccco3)c2N)c(C)c1 ?
Result string: inactive

Query string: Could you check what this test reported for Cc1ccc(-n2c(C)cc(C(=O)CN3C(=O)C(=O)N(C4CCCC4)C3=O)c2C)cc1 ?
Result string: inactive

Query string: Could you check what this test reported for CC(C)COC(=O)c1ccc(NC(=O)C2C3C=CC(C3)C2C(=O)O)cc1 (stereo unspecified) ?
Result string: active

Query string: Could you check what this test reported for C(=N\n1cnnc1)/c1cccnc1 ?
Result string: inactive

Query string: Could you check what this test reported for COc1ccccc1C(CNC(=O)c1ccc(C)c(S(=O)(=O)N2CCCCC2)c1)N(C)C (stereo unspecified) ?
Result string: inactive

Query string: Could you check what this test reported for COC(=O)c1ccc(NC(=O)c2ccco2)cc1 ?
Result string: active

Query string: Could you check what this test reported for CC(C)C(=O)NCc1cc(-c2ccc(Cl)cc2)no1 ?
Result string: inactive

----------
# protocol notes: qHTS Assay for Rab9 Promoter Activators; also: nearly all actives have a fitted effect of over 60% in size; also: potency is read from the fitted curve at half-maximal effect
# condition summary: Huh7 Rab9 promoter-luciferase reporter, luminescence, 24 h; series mostly up to 9.22 µM
Out of some 320,000 compounds screened, about 9,100 (2.8%) were called active. Roughly 3% stayed inconclusive and do not appear here. The list comes from a sample in which actives are over-represented; it also holds close analogues and randomly drawn compounds.
observable: Potency

Cc1ccccc1Nc1nc(N)nc(CSc2ccccc2)n1 :: 1.41 µM (active)
Clc1cccc(Cl)c1Cn1nnc(-c2cccs2)n1 :: 2.82 µM (active)
O=C(Nc1ccc(S(=O)(=O)N2CCCC2)cc1Cl)C1=COCCO1 :: inactive
Cc1ccc(-c2csc(NC(=O)C3=COCCO3)n2)cc1C :: inactive
COc1cccc(-c2ccc3c(c2)S(=O)(=O)c2cccc(C(=O)O)c2C3=O)c1OC :: inactive

Query string: # query: Potency of entry CC(=O)Nc1ccc(NC(=O)COc2ccc(-c3ccccc3)cc2)cc1
Result string: inactive

Query string: # query: Potency of entry CCN(CC(=O)Nc1ccc(OC)cc1)C(=O)c1ccc(=O)n(Cc2ccccc2)n1
Result string: inactive

Query string: # query: Potency of entry NS(=O)(=O)c1ccc2nc(NC(=O)C3=COCCO3)sc2c1
Result string: 1.12 µM (active)

Query string: # query: Potency of entry Cc1ccc(OCC(=O)Nc2ccc(-c3nnc(-c4ccco4)o3)cc2)cc1
Result string: 2.82 µM (active)

Query string: # query: Potency of entry COc1ccccc1N1CCN(C(=O)Cn2nnc(-c3cccs3)n2)CC1
Result string: inactive

----------
# protocol notes: qHTS Assay for Rab9 Promoter Activators; also: nearly all actives have a fitted effect of over 60% in size
# condition summary: Huh7 Rab9 promoter-luciferase reporter, luminescence, 24 h; series mostly up to 9.22 µM
Out of some 320,000 compounds screened, about 9,100 (2.8%) were called active. Not shown: some 3% with an inconclusive outcome. Calls come from the whole dose curve; as a rule, active = well fitted activation curve with a large enough effect; inconclusive = small, poorly fitted or top-dose-only effect; inactive = no such curve, though single readings can be large or run the other way. The list comes from a sample in which actives are over-represented; it also holds close analogues and randomly drawn compounds.
Select the matching outcome among label 1 (active), label 0 (inactive)

Query string: Could you check what this test reported for COc1ccc(N2CCN(C(=O)/C(C#N)=C/c3ccccc3)CC2)cc1 ?
Result string: label 0

Query string: Could you check what this test reported for COc1ccc(C(=O)CSc2nnnn2C)c(OC)c1 ?
Result string: label 0

Query string: Could you check what this test reported for C=CCn1c(=O)c(C(=O)Nc2ncccc2O)c(O)c2ccccc21 ?
Result string: label 0

Query string: Could you check what this test reported for O=C(NCC(=O)N1CCCCCCC1)c1ccccc1Cl ?
Result string: label 0

Query string: Could you check what this test reported for Fc1cccc(Cl)c1COc1ccc(-c2nnco2)cc1 ?
Result string: label 0

Query string: Could you check what this test reported for O=C(CCc1ccccc1F)N1CCN(c2ccccc2)CC1 ?
Result string: label 0

Query string: Could you check what this test reported for O=C(NCC(=O)N1CCN(c2ccccc2F)CC1)c1cccs1 ?
Result string: label 0

Query string: Could you check what this test reported for O=C(CN1CCN(C2CCS(=O)(=O)C2)CC1)N1N=C(c2ccc(Cl)cc2)CC1c1ccco1 (configuration not stated) ?
Result string: label 0

Query string: Could you check what this test reported for Cc1ccccc1N1CCN(C2CCCN(C(=O)c3cn4c(C)cccc4n3)C2)CC1 (configuration not stated) ?
Result string: label 0

Query string: Could you check what this test reported for Cn1c(=O)c(C(=O)Nc2ncccn2)c(O)c2ccccc21 ?
Result string: label 1

Query string: Could you check what this test reported for CCCn1c(=O)c(C(=O)Nc2cc(C)ccn2)c(O)c2ccccc21 ?
Result string: label 0

Query string: Could you check what this test reported for Cc1cccc(C(=O)O)c1[N+](=O)[O-] ?
Result string: label 0
